tested on: Serine/threonine-protein kinase B-raf (Homo sapiens), P15056 [V600E]; details: at 0.1 µM;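 further: mean inhibition of the BRAF V599E mutant, from GSK PKIS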
Sequence (P15056 whole entry V600E): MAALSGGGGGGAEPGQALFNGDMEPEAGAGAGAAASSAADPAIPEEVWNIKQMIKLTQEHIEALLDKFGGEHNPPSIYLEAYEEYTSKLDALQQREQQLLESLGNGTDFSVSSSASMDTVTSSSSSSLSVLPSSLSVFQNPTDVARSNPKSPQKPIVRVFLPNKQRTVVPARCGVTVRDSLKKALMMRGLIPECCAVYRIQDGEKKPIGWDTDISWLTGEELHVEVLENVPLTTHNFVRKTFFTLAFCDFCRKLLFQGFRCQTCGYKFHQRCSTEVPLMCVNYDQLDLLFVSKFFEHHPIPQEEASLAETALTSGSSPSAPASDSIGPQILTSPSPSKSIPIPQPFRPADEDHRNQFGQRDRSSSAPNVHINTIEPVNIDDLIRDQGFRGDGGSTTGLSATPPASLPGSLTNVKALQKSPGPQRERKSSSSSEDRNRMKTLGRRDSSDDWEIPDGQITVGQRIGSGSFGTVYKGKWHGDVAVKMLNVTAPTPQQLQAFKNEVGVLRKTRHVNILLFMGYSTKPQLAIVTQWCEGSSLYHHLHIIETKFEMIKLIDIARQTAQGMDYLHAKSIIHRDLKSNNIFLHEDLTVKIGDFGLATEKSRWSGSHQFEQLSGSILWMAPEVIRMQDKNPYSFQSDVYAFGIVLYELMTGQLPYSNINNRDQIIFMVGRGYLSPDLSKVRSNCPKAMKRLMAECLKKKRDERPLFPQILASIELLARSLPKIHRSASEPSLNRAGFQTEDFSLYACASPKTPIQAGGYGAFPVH
Description: GSK_PKIS: BRAF (V599E mutant) mean inhibition at 0.1 uM [Nanosyn]
Reported property: inhibition (%)
// return numeric value only (unit: %, not printed)

FC(F)(F)c1ccc(-c2nn3ncccc3c2-c2ccnc(Nc3ccc4c(c3)OCCO4)n2)cc1	-1.85

Q) Which measured inhibition value corresponds to `Cc1ccc2c(-c3ccnc(Nc4ccc5c(c4)OCCO5)n3)c(-c3ccc(C(F)(F)F)cc3)nn2n1` ?
A) 0.62

Q) Which inhibition is listed for `O=C(Nc1ccc(Oc2ccc3[nH]c(NC(=O)c4ccco4)nc3c2)cc1)Nc1cc(C(F)(F)F)ccc1F` ?
A) 3.75

Q) Recorded inhibition for `Cc1ccc(O)cc1Nc1ccnc2ccc(S(C)(=O)=O)cc12` , please?
A) 13.8

Q) Could you share which inhibition value was measured for `COC(=O)c1cncc(/C=C/c2c(C)cc(O)cc2C)c1` ?
A) 5.41

Q) Look at this molecule and give its reported inhibition. `NS(=O)(=O)c1ccc(NC=C2C(=O)Nc3ccc4ncsc4c32)cc1`
A) 16.6

Q) Fill in the blank: the reported inhibition of `COc1ccc(-c2nn3ncccc3c2-c2ccnc(Nc3cccc(C(F)(F)F)c3)n2)cc1` is ____.
A) 4.63

Q) Query (molecule): `OCc1ccc(-c2nc(-c3ccccn3)c(-c3ccc4c(c3)OCO4)[nH]2)cc1` ; field requested: inhibition
A) 6.24

Q) Can you look up the measured inhibition of `NS(=O)(=O)c1ccc(Nc2cc(-c3cccc(O)c3)n[nH]2)cc1` for me?
A) 6.98

Q) Given the molecule `COC(=O)c1ccc2c(c1)C(=Cc1cc(Br)c(O)c(Br)c1)C(=O)N2` , what is its reported inhibition?
A) 7.27

Q) Form field: reported inhibition of `N#Cc1c(NC(=O)c2ccccc2F)sc2c1CCCC2`
A) -0.04

Q) Quick one: inhibition for `COc1cccc(-n2ncc3c(N/N=C/c4ccc(C)cc4)ncnc32)c1` ?
A) 4.78

Q) If you can, please state the reported inhibition value of `COC(=O)Nc1nc2cc(Oc3ccc(NC(=O)Nc4cccc(Br)c4)cc3)ccc2[nH]1` .
A) 11.3

Q) Could you share which inhibition value was measured for `NC(=O)c1sc(-n2cnc3ccccc32)cc1OCc1ccccc1Br` ?
A) 4.91

Q) Item under review: `NS(=O)(=O)c1cccc(-c2cc3ccncc3cc2OCc2ccccc2)c1` . Reported inhibition?
A) 5.8

Q) Return reported inhibition; argument: `c1ccc(Cc2nc3ccc(Nc4ncnc5ccccc45)cc3[nH]2)cc1`
A) 4.48
